Assay: Cell-free equilibrium dialysis with Pluronic P85
Type: physicochemical
Details: absence of Pluronic P85
measure_name: equilibrium free fraction

Solved entries (count: 3):
input_smiles=CC(C)(C)NC(=O)[C@@H]1C[C@@H]2CCCC[C@@H]2CN1C[C@@H](O)[C@H](Cc1ccccc1)NC(=O)[C@H](CC(N)=O)NC(=O)c1ccc2ccccc2n1 measure_name="equilibrium free fraction" value_reported="0.827 ± 0.114"
input_smiles=OC[C@@H](O)[C@@H](O)[C@H](O)[C@H](O)CO measure_name="equilibrium free fraction" value_reported="0.994 ± 0.06"
input_smiles=Cc1c(O)cccc1C(=O)N[C@@H](CSc1ccccc1)[C@H](O)CN1C[C@H]2CCCC[C@H]2C[C@H]1C(=O)NC(C)(C)C measure_name="equilibrium free fraction" value_reported="0.953 ± 0.109"

Now, please, on to the next compound.
Q: # get_value(readout='equilibrium free fraction', item= "Nc1nc(NC2CC2)c2ncn([C@H]3C=C[C@@H](CO)C3)c2n1" )
Result: 1.057 ± 0.212
